- Target Of Assay: Streptokinase A (Streptococcus pyogenes serotype M1, UniProt P10520)
- Sequence (P10520 whole entry): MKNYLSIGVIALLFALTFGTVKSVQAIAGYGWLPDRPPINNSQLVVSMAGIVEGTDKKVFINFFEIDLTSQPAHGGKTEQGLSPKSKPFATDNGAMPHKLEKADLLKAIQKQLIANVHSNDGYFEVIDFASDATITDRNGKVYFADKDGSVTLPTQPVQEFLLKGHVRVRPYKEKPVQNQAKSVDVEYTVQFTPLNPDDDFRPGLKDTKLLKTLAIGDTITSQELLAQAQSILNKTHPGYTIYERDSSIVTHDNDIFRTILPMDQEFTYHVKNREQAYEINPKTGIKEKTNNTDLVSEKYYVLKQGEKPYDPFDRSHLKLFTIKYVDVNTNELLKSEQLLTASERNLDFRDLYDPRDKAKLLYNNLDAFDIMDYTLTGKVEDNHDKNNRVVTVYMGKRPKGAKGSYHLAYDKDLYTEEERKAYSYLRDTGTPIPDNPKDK
- Measurement Notes: viability-normalized secreted streptokinase activity reduction – plasminogen activation absorbance, OD405, dose response (AID 1914);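 further: secreted streptokinase activity via plasminogen activation per viability signal from cell pellet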
- Type: functional, Streptococcus pyogenes M1 GAS
Calls of active or inactive are those of the source. No stated cut-off is given here; in the data, actives have a measured EC50 and inactives only a lower limit.
Parameter: EC50. Scope: all listed entries.
Experimental Endpoint: EC50

1. COc1cccc(-c2cc(C(=O)NCC3CCCO3)c3cc(Br)cc(C)c3n2)c1 (stereo unspecified) :: > 150 µM (not active)
2. Cc1cc(Oc2ccc(Cl)cc2)nc(-c2ccccc2O)n1 :: 14.6 µM (active)
3. CCOC(=O)C1=C(N)c2ccccc2CC1C1CCCC1 (stereo unspecified) :: 19.3 µM (active)
4. COc1ccc(C2CC(c3cccs3)=NN2C(=O)CSC2=NCCS2)cc1 (stereo unspecified) :: > 150 µM (not active)
5. CN(C(=O)Cc1c(C(=O)O)n(C)c2ccccc12)c1ccc(F)cc1 :: > 150 µM (not active)
6. COc1ccc(CNC(=O)c2c(C)oc3c2C(=O)c2ccccc2C3=O)cc1 :: > 150 µM (not active)
7. CC(=O)c1c(C)[nH]c(C(=O)Nc2nc(-c3ccc(-c4ccccc4)cc3)cs2)c1C :: > 150 µM (not active)
8. CC(C)(O)c1ccccc1CC[C@@H](SCC1(CC(=O)O)CC1)c1cccc(/C=C/c2ccc3ccc(Cl)cc3n2)c1 [MONTELUKAST SODIUM] :: 3.41 µM (active)
9. N#C/C(=N\Nc1ccc(Cl)cc1)C(N)=S :: > 150 µM (not active)
10. CCSc1nsc(NC(=O)Nc2cccc(F)c2)n1 :: 40.5 µM (active)
11. CN1Cc2cc(C(=O)c3cc(Cl)cc(CSc4ncccn4)c3O)cnc2NC1=O :: > 150 µM (not active)
